# protein stability index per entry
B1: MCOLN1 (parent)
chain: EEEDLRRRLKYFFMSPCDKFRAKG

- Variants of: B1
- experiment-summary: protein stability index of a GFP-peptide fusion (GPS, HEK-293T) (PSI 1-6); higher = more stable;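 further: lentivirally expressed fusions sorted by FACS into six bins by GFP to DsRed ratio, PSI derived from sequencing read proportions per bin multiplied by bin number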
- measurement-conditions: c terminus: a fixed tail appended
Number only, please.

Here's what some known entries look like.
E2R = 3.07
K19V = 2.51

Endpoint output: protein stability index of L9F . Value?
2.96

Consider the variant Y11E and give its measured protein stability index.
3.73

Fill in: protein stability index of G24D is ___
2.4

Sample P16K — what was its protein stability index?
2.61

Which protein stability index is listed for R21M ?
2.72

Consider the variant shown here: F20M What is its recorded protein stability index?
2.77

protein stability index for S15Q ?
2.84

Find the recorded protein stability index belonging to P16W and report it.
2.19

Recorded protein stability index for F20Q , please?
3.23

Fill blank: measured protein stability index of the variant E3I is ____.
1.64

Entry R21K has what protein stability index?
2.93

Using the record for K10A , report its protein stability index.
2.15

Please look up its protein stability index: S15V
2
